In this section we review reported glycan array binding signal (z-score) values for a set of binders.
Tested on: Neu5Gc(a2-3)Gal(b1-3)[Fuc(a1-4)]GlcNAc
Measurement notes: glycan array binding signal (z-score within array); higher = stronger binding
Particulars: glycan notation: IUPAC condensed, linker removed
The sample as a whole holds a higher share of the strongest signals than the screen did.
Form rule: numeric answer, no unit written next to it.

Worked examples, 2 binders total:
>>> measurement("B936 (Bifidobacterium sp) (protein) MKNWKKAIALVASAAALVSVAACGPSNAGGSSDSGKKTVGFVAVGPEGGFRTANEKDIQKAFEDAGFDLTYSPTQNNDQQKQIQAFNKFVNDEVDAIILSSTEDSGWDDSLKKAAEAEIPVFTVDRNVDVKDAEAKKAIVAHIGPSNVWCGEQAAEFVNKNFPDGANGFILEGPAGLSVVKDRGTGWGNKVASNVKVLESQSANWSTDEAKTVTAGLLDKYKSDNPQFIFAQNDEMGLGAAQAVDAAGLKGKVKIITIDGTKNALQALVDGDLSYVIEYNPIFGKETAQAVKDYLDGKTVEKDIEIESKTFDAASAKEALDNNTRAY")
0.081
>>> measurement("Onconase (Rana pipiens), P22069 (protein) QDWLTFQKKHITNTRDVDCDNIMSTNLFHCKDKNTFIYSRPEPVKAICKGIIASKNVLTTSEFYLSDCNVTSRPCKYKLKKSTNKFCVTCENQAPVHFVGVGSC")
1.6

We now examine a further binder.
Incoming: Please look at this binder and report its glycan array binding signal (z-score): DGL (Dioclea grandiflora), P08902 (protein) ADTIVAVELDSYPNTDIGDPNYPHIGIDIKSIRSKSTARWNMQTGKVGTVHISYNSVAKRLSAVVSYSGSSSTTVSYDVDLNNVLPEWVRVGLSATTGLYKETNTILSWSFTSKLKTNSIADENSLHFSFHKFSQNPKDLILQGDAFTDSDGNLELTKVSSSGDPQGNSVGRALFYAPVHIWESSAVVASFDATFTFLIKSPDREPADGITFFIANTDTSIPSGSGGRLLGLFPDAN
Outgoing: -0.179

Where do these numbers come from? They come from the supplement of paper PMC8728848.
